Biological target: T1, CD134 expressed on the cell surface of HT1080_OX40 cells (human, UniProt P43489 29-277)
T1 construct: whole, on cells; species not restated for the HT1080 transfectant
T1 sequence (looked up): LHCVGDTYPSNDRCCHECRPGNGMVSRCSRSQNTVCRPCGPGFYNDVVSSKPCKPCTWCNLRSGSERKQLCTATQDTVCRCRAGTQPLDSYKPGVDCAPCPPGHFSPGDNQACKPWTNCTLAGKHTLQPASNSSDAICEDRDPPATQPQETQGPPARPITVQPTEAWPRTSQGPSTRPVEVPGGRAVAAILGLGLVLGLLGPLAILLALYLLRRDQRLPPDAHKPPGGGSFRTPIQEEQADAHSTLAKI
Assay: HT1080_OX40 cells, imaging; note: test concentration or dose not given here
For each entry below, report its Cellular binding assay [RFU] value.
Write down the numeric answer in RFU and omit the unit.

Request: Query: Cellular binding assay [RFU]; subject: P018.S.12.A.C05 (antibody, V domains shown, V regions on human Ig constant parts; also called AB134_65) VH: QSLEESGGRLVTPGTPLTLTCTASGFSLSNYYMNWVRQAPGKGLEWIGIIDKSGSAYYASWARGRFTISKTSTTVGLKIPSPTTEDTATYFCARGYGGYADHGLGLWGQGTLVTVSS VL: DVVMTQTPASVSEPVGGTVTIKCQASQSIAGWLAWYQQKPGQPPKLLIYQASKLASGVPSRFSGSGSGTEYTLTISDLESDDAATYYCQCTYGSGSGSNGFGGGTEVVVK
Result: 494

Request: // lookup Cellular binding assay [RFU] for P018.S.11.A.F02 (antibody, V domains shown, V regions on human Ig constant parts; also called AB134_38) VH: QSVEESGGRLVTPGTPLTLTCTASGFSLSNYNMGWVRQAPGEGLEWIGHISTDGSAYYASWAKGRFTISKTSTTVDLKITSPTTEDTGTYFCARLYYRHGYALNLWGQGTLVTVSS VL: DIVMTQTPASVSEPVGGTVTIKCQASQSVGSYLAWYQQKSGQPPKLLIYSASTLASGVPSRFKGSGSGTEFTLTISDLVSADAATYYCHCTYGSNITANWGTFGGGTGVVVK
Result: 503

Request: Record request: Cellular binding assay [RFU] value, item P018.S.12.A.H01 (antibody, V domains shown, V regions on human Ig constant parts; also called AB134_88) VH: QSVEESGGRLVTPGTPLTLTCTVSGFSLSSYAMSWVRQAPGKGLEWIGDINSYATTYYASWAKGRFTISKTSTTVDLKLTSPTTEDTATYFCAREAGYADLWGQGTLVTVSS VL: AYDMTQTPASVEVAVGGTVTIKCQASQSISRYLSWYQQEPGQRPKLLIYEASTLASGVSSRFKGSGSGTQFTLTISGVESADAATYYCQQDYDSTDVGNTFGGGTEVVVK
Result: 523

Request: Which Cellular binding assay [RFU] is reported for this binder? P018.S.11.A.H02 (antibody, V domains shown, V regions on human Ig constant parts; also called AB134_46) VH: QSVEESGGRLVTPGTPLTLTCTVSGFSLSNYAMSWVRQAPGKGLEWIGIISPSGNTYYANWAKGRFTISKTSTTVDLKITSPTTEDTATYFCAREGALYDDYGDYVDAFDPWGPGTLVTVSS VL: AAVLTQTPSPVSAAVGGTVSISCQSSESVYNNNWLSWYQQKPGQPPKLLIYRASTLASGVPSRFKGSGSGTQFTLTISDVQSDDAATYYCAGGYSSSSDINAFGGGTEVVVK
Result: 515

Request: # input binder: P018.S.11.A.G05 (antibody, V domains shown, V regions on human Ig constant parts; also called AB134_45) VH: QSLEESGGDLVKPGASLTLTCAASGFSLNNWVMCWVRQAPGKGLEWIACIDIVGSGSTHYATWAKGRFTMSKASSITVTLQMTSLTAADTATYFCARGVNGDGNLNLWGPGTLVTVSS VL: DVVMTQTPASVSEPVGGAVTIKCQASETISNYLAWYQQKPGQRPKLLIYGASNLESGVPSRFKGSGSGTEFTLTISDLESADAATYYCQCTYVGDSYTAFGGGTEVVVK ; wanted: its Cellular binding assay [RFU]
Result: 531

The reported measurements were obtained from patent US20210253725A1.
